Data credit: PubChem BioAssay AID449762

Assay: M. tuberculosis growth inhibition, HTS (AID 449762);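 also: bacterial growth assessed after seven days of incubation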
Settings: M. tuberculosis H37Rv growth inhibition, 7H9 media; at 25 µM; active compounds read high
In all, about 330,000 compounds went through this assay and about 1,900 (0.58%) were called active. Inconclusive results (about 4%) are left out. Not all results are given here. Results with a measured potency or affinity are listed apart.
Would you mind telling me the reported inhibition of each entry?
Answer format: numeric, % implied, no suffix.

Problem: Consider the molecule N[C@@H](Cc1cc(Br)c(O)c(Br)c1)C(=O)O and give its measured inhibition.
Solution: 1.75

Problem: Can you look up the measured inhibition of CCOP(=O)(OCC)C(NC(=O)c1ccccc1)=C(Cl)Cl for me?
Solution: -0.5

Problem: Could you tell me which inhibition is on file for Cc1cccc(NC(=S)NCC(C)CSc2ccc(Cl)cc2)c1 (stereo unspecified) ?
Solution: 10.5

Problem: Query: inhibition; subject: O=C(Nc1ccc2c(c1)OCO2)c1cnn2c1NC(c1ccco1)CC2C(F)(F)F (stereo unspecified)
Solution: -5.12

Problem: # input molecule: N#Cc1ccccc1S(=O)(=O)N1CCN(CC(O)COc2ccccc2F)CC1 (stereo unspecified) ; wanted: its inhibition
Solution: 3.84

Problem: Give the measured inhibition of O=C(c1ccc2c(=O)n(Cc3ccccc3)c(=S)[nH]c2c1)N1CCCC1 .
Solution: -3.86

Problem: Consider the molecule shown here: CCc1nn(CCCC(=O)N2CCc3ccccc3C2)c(=O)c2cc3occc3n12 What is its recorded inhibition?
Solution: -0.11

Problem: What value of inhibition has been reported for the following molecule? COc1cccc(C(=O)NNC2=C(C(=O)C(F)(F)F)CCC2)c1
Solution: 0.71

Problem: inhibition lookup needed for N[C@@H](Cc1cc(I)c(O)c(I)c1)C(=O)O , thanks.
Solution: -4.28

Problem: Bench note: what inhibition did COC(=O)c1cc(C(=O)NCC2CCCCC2)cc([N+](=O)[O-])c1 show?
Solution: -5.46

Problem: Query (molecule): O=C(NCC1CCCCC1)c1cccc([N+](=O)[O-])c1 ; field requested: inhibition
Solution: 4.44
